System: KRas G12C/Q61H double mutant (Homo sapiens (Human), UniProt P01116, G12C/Q61H)
Sequence (P01116-2 other isoform, or with tags, fused parts or gaps G12C/Q61H): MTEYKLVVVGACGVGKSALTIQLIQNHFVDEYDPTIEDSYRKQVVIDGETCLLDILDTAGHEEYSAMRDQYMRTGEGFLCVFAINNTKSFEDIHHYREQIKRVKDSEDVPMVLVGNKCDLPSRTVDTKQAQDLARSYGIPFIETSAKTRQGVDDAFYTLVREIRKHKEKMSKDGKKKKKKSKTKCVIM
Run description: Ras GTP binding domain inhibition assay (labeled GTP)
Assay setup: 20 μM compound; read-out: % Inhibition at 20 μM KRas G12C Q61H
We begin with a simple list: items and their reported inhibition at 20 µM.

* Oc1nc(-c2ccccn2)nc2c(-c3ccc4c(c3)OCO4)csc12 [drawing 2879] | 51 to 75%
* COc1ccnc(-c2nc(O)c3c(Cl)csc3n2)c1 [drawing 2800] | 76 to 100%
* N#Cc1cccc(CCNC(=O)c2csc3nc(-c4ccccn4)nc(N4CCOCC4)c23)c1 [drawing 2787] | 25 to 50%
* COc1ccncc1CCNC(=O)c1csc2nc(-c3ccccn3)nc(N3CCOCC3)c12 [drawing 2780] | 1 to 25%
* Oc1nc(-c2ccccn2)nc2c(-c3ccc4c(c3)CCCO4)csc12 [drawing 2902] | 25 to 50%

So for Oc1nc(-c2ccccn2)nc2c(-c3cccc(C(F)(F)F)c3)csc12 [drawing 2873] , the logged inhibition at 20 µM turned out to be 25 to 50%

So for Cc1sc2c(N)nc(-c3ccccn3)nc2c1Br [drawing 2893] , the logged inhibition at 20 µM turned out to be 25 to 50%

So for COc1ccc(CCNC(=O)c2csc3nc(-c4ccccn4)nc(N4CCS(=O)(=O)CC4)c23)cn1 [drawing 2853] , the logged inhibition at 20 µM turned out to be 25 to 50%

So for COc1cccc(CN2CCN(C(=O)c3csc4c(O)nc(-c5ccccn5)nc34)CC2)c1 [drawing 2763] , the logged inhibition at 20 µM turned out to be 76 to 100%

So for Cc1cnc(-c2ccccn2)nc1NC(=O)Cc1ccc2cnccc2c1 [drawing 2856] , the logged inhibition at 20 µM turned out to be 51 to 75%

So for Oc1nc(-c2ccccn2)nc2c(-c3ccc(C4CCC4)cc3)csc12 [drawing 2865] , the logged inhibition at 20 µM turned out to be 51 to 75%

So for Cn1nnc2ccc(-c3csc4c(O)nc(-c5ccccn5)nc34)cc21 [drawing 2861] , the logged inhibition at 20 µM turned out to be 51 to 75%

So for O=C(NCCc1cccnc1)c1csc2nc(-c3ccccn3)nc(N3CCOCC3)c12 [drawing 2744] , the logged inhibition at 20 µM turned out to be 25 to 50%

So for CCn1nc(C)cc1-c1csc2c(O)nc(-c3ccccn3)nc12 [drawing 2903] , the logged inhibition at 20 µM turned out to be 51 to 75%

So for N#Cc1ccc2c(c1)CCCC2C(=O)Nc1ccnc(-c2ccccn2)n1 (stereo not drawn) [drawing 2855] , the logged inhibition at 20 µM turned out to be 51 to 75%

So for COc1cc(CCNC(=O)c2csc3nc(-c4ccccn4)nc(N4CCOCC4)c23)ccn1 [drawing 2747] , the logged inhibition at 20 µM turned out to be 25 to 50%

So for O=C(c1csc2c(O)nc(-c3ccccn3)nc12)N1CCN(c2cccc(F)c2)CC1 [drawing 2753] , the logged inhibition at 20 µM turned out to be 51 to 75%

So for COc1ccnc(-c2nc(O)c3c(Br)csc3n2)c1 [drawing 2742] , the logged inhibition at 20 µM turned out to be 1 to 25%
